// reported GI50 for each item listed
system: OVCAR-3; experiment: NCI tumour cell line growth inhibition, 48 h
Calls of active or inactive are those of the source. Rule as the data show it: active = GI50 up to about 1.1 µM and inactive = higher.
ENDPOINT: GI50

- COMPOUND: "CC(=O)OC1C[C@@H](C)C2(C[C@H](O)c3ccoc3)C(=O)OC[C@]13C2CCC(O)C31CO1 (stereo partly drawn)"
  RESULT: "> 100 µM (inactive)"
- COMPOUND: "CN1C(=O)N(C)C2(CCN(CCCCCCF)CC2)C1=O"
  RESULT: "> 100 µM (inactive)"
- COMPOUND: "O=C(OCCOCCOC(=O)c1c[nH]cc1-c1ccccc1)c1c[nH]cc1-c1ccccc1"
  RESULT: "22.1 µM (inactive)"
- COMPOUND: "C=C1CC(Cn2cc(Br)c(=O)[nH]c2=O)(c2ccc(-c3ccccc3)cc2)OC1=O (stereo not drawn)"
  RESULT: "1.63 µM (inactive)"
- COMPOUND: "O=C1c2cc3ccccc3cc2C2(c3ccc(Cl)cc3)N[C@H]3CCCC[C@@H]3N12 (stereo partly drawn)"
  RESULT: "19.4 µM (inactive)"
- COMPOUND: "O=c1ccn(COC(COCc2ccccc2)COCc2ccccc2)c(=O)[nH]1"
  RESULT: "> 100 µM (inactive)"
- COMPOUND: "c1ccc2c(CN3CCC(C4CCN(Cc5cccc6ccccc56)CC4)CC3)cccc2c1"
  RESULT: "39.7 µM (inactive)"
- COMPOUND: "O=C1c2ccccc2C(=O)N1CC(O)COc1cccc2ccccc12 (stereo not drawn)"
  RESULT: "> 100 µM (inactive)"
- COMPOUND: "CC(C)(C)OC(=O)N1C(C2=COc3ccccc3O2)=COc2ccccc21"
  RESULT: "21.1 µM (inactive)"
- COMPOUND: "CC1CN(c2ccc(Cl)cc2)CC(C)OC(=O)O1 (stereo not drawn)"
  RESULT: "> 100 µM (inactive)"
- COMPOUND: "C1C[N+]23CCC[N+]2(C1)CCC3 (stereo not drawn)"
  RESULT: "> 100 µM (inactive)"
- COMPOUND: "O=C(Nc1ccc(-c2cn3ccccc3n2)cc1)c1cc(Br)ccc1O"
  RESULT: "> 100 µM (inactive)"
- COMPOUND: "NC(=O)/C(=N\\NC(=O)c1cc2ccccc2cc1O)C1C(=O)N(c2ccccc2)N=C1N (stereo not drawn)"
  RESULT: "28 µM (inactive)"

----------
Consider the following molecules and their measured GI50 readings.
system: UACC-62; experiment: NCI tumour cell line growth inhibition, 48 h
Calls of active or inactive are those of the source. Cut-off read from the data, not from the text of the source: active = GI50 up to about 1.1 µM and inactive = higher. *1 amine or outer side, *2 acyl side, *3 side chain or, on linkers, in order; H or OH if unused. Where a SMILES comes first, the peptide text is derived from it. [ ]: non-standard residue; d: D form. The star is where a group is joined. ξ: configuration not given here. NMeY = CN[C@@H](Cc1ccc(O)cc1)C(=O)O; Ethylenediamine = C(CN[*:2])N[*:1]; ξNMeL = CNC(CC(C)C)C(=O)O; Cbz = O=C(OCc1ccccc1)*; Lac = C[C@H](O)C(=O)O; ξA = CC(N)C(=O)O

- MOLECULE: "C=CC(C)(C)C(=C)C(=O)N(C)c1ccccc1I"
  GI50: "> 100 µM (inactive)"
- MOLECULE: "CN(C)Cc1cc(C(C)(C)C)cc(CN(C)C)c1O"
  GI50: "> 100 µM (inactive)"
- MOLECULE: "c1ccc2c(CN3CCC(C4CCN(Cc5cccc6ccccc56)CC4)CC3)cccc2c1"
  GI50: "5.64 µM (inactive)"
- MOLECULE: "CCC1=C(c2ccc(OC)cc2)CC[C@@]2(CCNC2=O)[C@@H]1C"
  GI50: "> 100 µM (inactive)"
- MOLECULE: "O=C1NC(=O)[C@@]2(CC[C@@H](O)C2)c2ccncc21 [SESBANINE]"
  GI50: "> 100 µM (inactive)"
- MOLECULE: "O=C(CC(=O)N1N=C(N(c2ccccc2)c2ccccc2)CC1c1ccccc1)Nc1cccc(Cl)c1 (configuration not stated)"
  GI50: "> 100 µM (inactive)"
- MOLECULE: "CN(C)c1ccc(/N=N/c2ccccn2)cc1"
  GI50: "33.4 µM (inactive)"
- MOLECULE: "COc1ccc(C[C@@H](C(=O)NCCNC(=O)C(CC(C)C)N(C)C(=O)[C@@H]2CCCN2C(=O)[C@H](C)O)N(C)C(=O)[C@@H]2CCCN2C(=O)[C@H](CC(C)C)NC(=O)C(C)NC(=O)OCc2ccccc2)cc1 (some centres not stated) (Cbz-[ξA]LP[NMeY](Me)-{Ethylenediamine-ξNMeL-Pro-Lac})"
  GI50: "96.2 µM (inactive)"
- MOLECULE: "CCCC(C)n1c(C)nc2c1C(=O)c1ccccc1C2=O (configuration not stated)"
  GI50: "6.78 µM (inactive)"
- MOLECULE: "NC(=O)/C(=N\\NC(=O)c1cc2ccccc2cc1O)C1C(=O)N(c2ccccc2)N=C1N (configuration not stated)"
  GI50: "15.2 µM (inactive)"
- MOLECULE: "Fc1ccc(N2C(=S)SC(=N\\c3ccccc3)/C2=N/c2ccccc2)cc1"
  GI50: "> 92 µM (inactive)"
- MOLECULE: "COc1cc2c(cc1OC)C1Cc3cc(OC)c(OC)cc3C(C2)N1C"
  GI50: "61.1 µM (inactive)"

----------
system: CAKI-1; experiment: NCI tumour cell line growth inhibition, 48 h
The source made the active and inactive calls. Cut-off read from the data, not from the text of the source: active = GI50 up to about 1.1 µM and inactive = higher.
Possible outcomes: active, inactive

- COMPOUND: "Cc1c(C(=O)O)n2cnnc2c2ccccc12"
  ASSIGNED CLASS: "inactive"
- COMPOUND: "S=C1c2ccc(Cl)cc2-n2cnnc2C2CSCN12 (configuration not stated)"
  ASSIGNED CLASS: "inactive"
- COMPOUND: "N=C(N)SCc1ccc(Cl)c2ccccc12.O=[N+]([O-])c1c(O)c(Cl)cc(Cl)c1Cl"
  ASSIGNED CLASS: "inactive"
- COMPOUND: "S=P1(c2ccccc2)Nc2ccc(Cl)cc2N1 (configuration not stated)"
  ASSIGNED CLASS: "inactive"
- COMPOUND: "O=C1NC(=S)S/C1=C/c1ccco1"
  ASSIGNED CLASS: "inactive"
- COMPOUND: "Cc1cc(C)nc(NC(=O)COc2ccc(Cl)cc2)c1"
  ASSIGNED CLASS: "inactive"
- COMPOUND: "COc1cc(/C=C/c2nc(N)nnc2C)cc(OC)c1OC"
  ASSIGNED CLASS: "inactive"
- COMPOUND: "CC1(C(=O)NCCN(CCNC(=O)C2(C)CC3(C)CC(C)(C2)C(=O)NC3=O)CCNC(=O)C2(C)CC3(C)CC(C)(C2)C(=O)NC3=O)CC2(C)CC(C)(C1)C(=O)NC2=O (configuration not stated)"
  ASSIGNED CLASS: "inactive"
- COMPOUND: "Cc1nc2ccc(F)cc2c2c1CCN2c1ccc(Cl)cc1"
  ASSIGNED CLASS: "inactive"
- COMPOUND: "CSc1nc(C)cc(Nc2ccc(O)c(CN3CCCCC3)c2)n1"
  ASSIGNED CLASS: "inactive"
- COMPOUND: "CC1=C(N2CC2)C(=O)c2nc3n(c2C1=O)CCC3OC(=O)CCl (configuration not stated)"
  ASSIGNED CLASS: "active"
- COMPOUND: "CCC1=C(c2ccc(OC)cc2)CC[C@@]2(CCNC2=O)[C@@H]1C"
  ASSIGNED CLASS: "inactive"

----------
system: MDA-MB-231; experiment: NCI tumour cell line growth inhibition, 48 h
Active and inactive are the calls of the source. Cut-off read from the data, not from the text of the source: active = GI50 up to about 1.1 µM and inactive = higher. Square brackets hold non-standard residues; d marks the D form. Peptide text beside a SMILES is read from it. * marks the point of attachment. ξ: configuration not given here. NMeY = CN[C@@H](Cc1ccc(O)cc1)C(=O)O; Cbz = O=C(OCc1ccccc1)*; ξA = CC(N)C(=O)O
Outcome codes: 1.0 for active, 0.0 for inactive

- MOLECULE: "O=C(Nc1ccc(-c2cn3ccccc3n2)cc1)c1cc(Br)ccc1O"
  ASSIGNED CLASS: 0.0
- MOLECULE: "CS(=O)(=O)O.[Ag]"
  ASSIGNED CLASS: 0.0
- MOLECULE: "CN(C)c1ccc(/N=N/c2ccccn2)cc1"
  ASSIGNED CLASS: 0.0
- MOLECULE: "C=C(CC)C[C@@H]1C[C@]2(C(=O)OC)c3[nH]c4ccccc4c3CCN2C1=O"
  ASSIGNED CLASS: 0.0
- MOLECULE: "CC(C)(O)c1cc2c(cc1C(C)(C)O)-c1ccccc1-2"
  ASSIGNED CLASS: 0.0
- MOLECULE: "C/C1=C\\[C@H](C)C[C@H](C)OC(=O)[C@H](C)NC(=O)[C@@H](Cc2ccc(O)c(Br)c2)N(C)C(=O)[C@H](C)NC(=O)[C@@H](C)C1"
  ASSIGNED CLASS: 1.0
- MOLECULE: "ClCCCc1ccccc1C1=NCCc2ccccc21"
  ASSIGNED CLASS: 0.0
- MOLECULE: "O=C1C/C(=N/c2ccc(Cl)cc2)C(c2ccccc2)N1c1ccccc1 (centres undefined)"
  ASSIGNED CLASS: 0.0
- MOLECULE: "O/N=C1\\C=Cc2nn(-c3ccccc3)nc2\\C1=N/O"
  ASSIGNED CLASS: 0.0
- MOLECULE: "COc1ccc(C/C=C(\\C)CCO)cc1"
  ASSIGNED CLASS: 0.0
- MOLECULE: "O=c1c2cccnc2cc(-c2ccccc2)n1CCO"
  ASSIGNED CLASS: 0.0
- MOLECULE: "CC(=O)C(=[N+]=[N-])C(=O)NCC#N"
  ASSIGNED CLASS: 0.0
- MOLECULE: "CCOC(=O)NC(Nc1ncccn1)(C(=O)OCC)C(F)(F)F (centres undefined)"
  ASSIGNED CLASS: 0.0
- MOLECULE: "COc1ccc(C[C@@H](C(=O)N[C@@H](C)C(N)=O)N(C)C(=O)[C@@H]2CCCN2C(=O)[C@H](CC(C)C)NC(=O)C(C)NC(=O)OCc2ccccc2)cc1 (some centres undefined) (Cbz-[ξA]LP[NMeY](Me)A-NH2)"
  ASSIGNED CLASS: 0.0
